- protocol: reversal of MRP1-mediated doxorubicin resistance, pilot screen, H69AR cells, doxorubicin co-treatment (AID 601)
- conditionInfo: H69AR cells + 2 uM doxorubicin, CellTiter-Glo, 72 h; at 10 µM; stronger effect = higher value

| compound | differential viability (reversal) / % |
| --- | --- |
| COc1cc(C(=O)N(C)c2nnc(-c3cccnc3)s2)cc(OC)c1OC | -8.95 |
| CCOC(=O)c1sc(NC(=O)c2c(C)nn(Cc3ccccc3)c2C)cc1C | -8.76 |
| Cn1cnnc1Sc1nc2c(c(=O)n(C)c(=O)n2C)n1Cc1ccccc1Cl | -2.15 |
| Clc1ccc(-c2nnc3sc(-c4ccc(Br)o4)nn23)cc1 | 10.5 |
| O=C(COC(=O)c1ccco1)NCc1cccs1 | 10.7 |
| c1ccc(-c2noc(-c3cccnc3)n2)nc1 | 4.56 |
| O=C(CN1CCSCC1)N1CCc2[nH]c3ccc(Br)cc3c2C1 | 7.04 |
| CCn1c(SCC(=O)NC)nnc1C(C)C | 8.98 |
| O=C(CCC1COc2ccccc2O1)NCC1COc2ccccc2O1 (stereo not drawn) | 4.35 |
| O=C(Nc1ccc(NC(=O)C2CC2)cn1)c1ccccc1Cl | 7.09 |
| COc1ccc2oc(C)c(C(=O)Cn3ccnc3)c2c1 | -2.3 |
| CCOC(=O)c1cnn(-c2sc(C(=O)OCC)c(C)c2C(=O)OCC)c1N | -25.8 |
| Cc1c(C(=O)NC2CCCc3ccccc32)oc2ccc(S(=O)(=O)N3CCOCC3)cc12 (stereo not drawn) | 1.53 |
| CC1CCN(C(=O)c2ccc(C(=O)N3CCC(C)CC3)cc2)CC1 | 5.22 |
| CC(C)CCNC(=O)NC(=O)CSc1nnc(-c2ccccc2F)n1N | 6.23 |
| O=C(NC(=O)c1ccc(Cl)cc1)Nc1cc(N2CCCCC2)ncn1 | -1.91 |
| O=c1[nH]c2cc3c(cc2cc1C(c1nnnn1C1CCCCC1)N1CCSCC1)OCCO3 (stereo not drawn) | -1.53 |
| Cc1cc(N2CCN(C3CCCC3)CC2)n2c(nc3ccccc32)c1C#N | 28.1 |
| NS(=O)(=O)c1cc2c(cc1Cl)NC(CSCc1ccccc1)=NS2(=O)=O | 2.97 |
| CC(CN1CCCCC1)OC(=O)c1ccc2c(c1)OCO2 (stereo not drawn) | 7.31 |
| COc1ccc(C(=O)Nn2c(SCC(=O)NCC3CCCO3)nc3ccccc3c2=O)cc1 (stereo not drawn) | 9.29 |
| CC1CC(=O)c2cnc(NCC3CCCO3)nc2C1 (stereo not drawn) | 4.31 |
| Cc1ccc2nc(C3CCN(CC(=O)N4CCCCCC4)CC3)[nH]c2c1 | -10.6 |

Source: PubChem BioAssay
